- System name: Sonic hedgehog protein (Mus musculus)
- Sequence (Q62226 25-198 limits assumed): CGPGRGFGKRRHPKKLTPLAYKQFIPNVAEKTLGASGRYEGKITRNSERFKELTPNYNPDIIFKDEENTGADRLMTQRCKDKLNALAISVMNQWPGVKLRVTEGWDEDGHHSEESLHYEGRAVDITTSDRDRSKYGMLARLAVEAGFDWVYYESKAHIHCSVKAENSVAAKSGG
- Experiment summary: Activation of Shh pathway in mouse Shh-Light II cells assessed as induction of gli1 expression after 48 hrs by […] luminescence assay
pEC50: −log10 of the molar value.
Endpoint: pEC50

What value of pEC50 on Sonic hedgehog protein (Mus musculus) does "CN[C@H]1CC[C@H](N(Cc2cccc(-c3ccncc3)c2)C(=O)c2sc3cc(F)ccc3c2Cl)CC1" have?
6.76

Subsequent entry: "CN[C@H]1CC[C@@H](N(Cc2cccc(-c3ccncc3)c2)C(=O)c2sc3ccccc3c2Cl)CC1"
7.21

Same question for "CN[C@H]1CC[C@H](N(Cc2cccc(-c3ccncc3)c2)C(=O)c2sc3ccccc3c2Cl)CC1" please.
8.06

[I] CN[C@H]1CC[C@H](N(Cc2cccc(-c3ccncc3)c2)C(=O)c2sc3cccc(Cl)c3c2Cl)CC1
[II] CN[C@H]1CC[C@@H](N(Cc2cccc(-c3ccncc3)c2)C(=O)c2sc3cccc(Cl)c3c2Cl)CC1
[III] CN[C@H]1CC[C@H](N(Cc2cccc(-c3ccncc3)c2)C(=O)c2[nH]c3ccccc3c2Cl)CC1
[IV] CN[C@H]1CC[C@H](N(Cc2cccc(-c3ccncc3)c2)C(=O)c2ccc(-c3ccccc3)o2)CC1
Put the items in order so that reported pEC50 rises from first to last. Would you mind listing the labels in the order asked for?
III, IV, I, II

Cited source: ChEMBL document CHEMBL2157999
